# target: T1, PUF4 RNA-binding domain (Saccharomyces cerevisiae, UniProt P25339 537-888)
# T1 sequence: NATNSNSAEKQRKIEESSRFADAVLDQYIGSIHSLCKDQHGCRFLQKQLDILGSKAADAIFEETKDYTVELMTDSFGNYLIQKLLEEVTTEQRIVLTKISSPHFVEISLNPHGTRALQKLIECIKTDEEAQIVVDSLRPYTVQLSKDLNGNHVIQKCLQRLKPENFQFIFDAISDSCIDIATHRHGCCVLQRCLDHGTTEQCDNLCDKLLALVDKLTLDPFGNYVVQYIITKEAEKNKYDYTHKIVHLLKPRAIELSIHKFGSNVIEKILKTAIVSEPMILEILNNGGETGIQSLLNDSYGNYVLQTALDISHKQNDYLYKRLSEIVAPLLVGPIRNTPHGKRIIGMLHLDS
# assayExplanation: Mg; RNA-MaP; 20 mM Na-HEPES pH 7.4, 30 mM KOAc, 0.75 mM MgCl2, 0.1% Tween-20, 5% glycerol, 0.1 mg/mL BSA, 2 mM DTT; 25 C; 0.0125-409.6 nM protein
# measurementParameters: tags: N-His6-TEV cleaved; C-SNAP kept, Cy3B-labelled; label: tethered on chip by stalled RNA polymerase
Kd under 20 nM gets rule met, anything at or over 20 nM gets rule not met.

Sample answers from the record:
[
  {
    "binder": "UCUCUUUGUAUUAGUCUCUU (ssRNA) [Ic_S1_P3E.1_K3.1_C3.1_H3.1_A3.1_[A6T]_F3.1_[T7A]_[A8G]_T3.1]",
    "cat": "rule not met"
  },
  {
    "binder": "Id_ii_S2_P5E.3_K5.2_C5.2_[C-2G]_H5.2_A5.1_F5.1_T5.2_[T11A] (ssRNA) RNA: UUUGAUUAAUAUGAUAUCGUUCUUUCUGUUAUAUUAUUAAAUUCUUUCUCGAUAUCAUAUUAAUCUUU",
    "cat": "rule not met"
  },
  {
    "binder": "UCUCUUAUACACUAUUACGUCUCUU (ssRNA) [Id_ii_S1_P4E.4_K4.3_C4.2_[C-2A]_H4.3_A4.1_F4.1_T4.2_[G10C]_[T11G]]",
    "cat": "rule not met"
  },
  {
    "binder": "UCUCUUUGUAGUCUAAUCUCUU (ssRNA) [Ic_S1_P5E.1_K5.1_C5.1_H5.1_A5.1_[T5G]_[A7C]_F5.1_[T9A]_T5.1]",
    "cat": "rule not met"
  },
  {
    "binder": "Id_ii_S2_P4E.2_K4.1_C4.2_[C-2G]_[T-1G]_H4.1_A4.1_F4.1_T4.2_[G10A]_[T11A] (ssRNA) RNA: UUUGAUUAAUAUGAUAUCGUUCUUUCUGGUGUAUAUUAAAUUCUUUCUCGAUAUCAUAUUAAUCUUU",
    "cat": "rule met"
  }
]

Dear reviewer, please state whether UCUCUUUGUAUAUAUAGCUCUCUU (ssRNA) [Id_ii_S1_P3E.3_K3.2_C3.2_[C-2T]_[T-1G]_H3.2_A3.1_F3.1_T3.2_[T9G]_[A10C]] has Kd strictly beneath 20 nM.
rule met

Dear reviewer, please state whether Ib_S2_P4E.1_K4.1_C4.1_H4.1_[A4T]_A4.1_F4.1_[T8A]_T4.1 (ssRNA) RNA: UUUGAUUAAUAUGAUAUCGUUCUUUCUUGUUUAUAAUUCUUUCUCGAUAUCAUAUUAAUCUUU has Kd strictly beneath 20 nM.
rule not met

Dear reviewer, please state whether UCUCUUUGUAUUCGAUUCUCUU (ssRNA) [Ic_S1_P5E.1_K5.1_C5.1_H5.1_A5.1_[A7C]_F5.1_[T8G]_[T9A]_[A10T]_T5.1] has Kd strictly beneath 20 nM.
rule not met

Dear reviewer, please state whether ACAAACUCUAUAUAUUAUAACAAAC (ssRNA) [Id_ii_S3_P4E.3_K4.2_C4.2_[C-2T]_[T-1C]_H4.2_A4.1_F4.1_T4.2_[G10T]_[T11A]] has Kd strictly beneath 20 nM.
rule met

Dear reviewer, please state whether UCUCUUAGUAUAUAUAUAUCUCUU (ssRNA) [Id_i_S1_P3E.3_K3.2_C3.2_[C-2A]_[T-1G]_H3.2_A3.1_F3.1_T3.2] has Kd strictly beneath 20 nM.
rule not met

Dear reviewer, please state whether Id_ii_S4_P5E.4_K5.3_C5.2_[T-1C]_H5.3_A5.1_F5.1_T5.2_[T11C]_[A12T] (ssRNA) RNA: UUUGACAACUGAUCGUUCUUUCUCCACACUUAUUACUUUCUUUCUCGAUCAGUUGUCUUU has Kd strictly beneath 20 nM.
rule not met

Dear reviewer, please state whether ACAAACAUUAUAUAUAAUACAAAC (ssRNA) [Id_ii_S3_P3E.3_K3.2_C3.2_[C-2A]_H3.2_A3.1_F3.1_T3.2_[T9A]_[A10T]] has Kd strictly beneath 20 nM.
rule not met

Dear reviewer, please state whether Ic_S2_P5E.1_K5.1_C5.1_H5.1_A5.1_[T5A]_[T6C]_[A7C]_F5.1_[T8A]_[A10G]_T5.1 (ssRNA) RNA: UUUGAUUAAUAUGAUAUCGUUCUUUCUUGUAACCAUGUUCUUUCUCGAUAUCAUAUUAAUCUUU has Kd strictly beneath 20 nM.
rule not met

Dear reviewer, please state whether Id_ii_S2_P5E.2_K5.1_C5.2_[C-2T]_[T-1G]_H5.1_A5.1_F5.1_T5.2_[T11A]_[A12T] (ssRNA) RNA: UUUGAUUAAUAUGAUAUCGUUCUUUCUUGUGUAUUAUUAAUUUCUUUCUCGAUAUCAUAUUAAUCUUU has Kd strictly beneath 20 nM.
rule met

Dear reviewer, please state whether Ie_S4_P4E.1_K4.1_C4.1_H4.1_A4.1_[+5TCTC]_F4.1_T4.1 (ssRNA) RNA: UUUGACAACUGAUCGUUCUUUCUUGUAUUCUCAUUAUUCUUUCUCGAUCAGUUGUCUUU has Kd strictly beneath 20 nM.
rule not met

Dear reviewer, please state whether Id_iii_S2_P3E.9_K3.5_C3.3_[T-1G]_H3.1_A3.2_F3.2_T3.2 (ssRNA) RNA: UUUGAUUAAUAUGAUAUCGUUCUUUCUUCGUGUAAAAAUAUUCUUUCUCGAUAUCAUAUUAAUCUUU has Kd strictly beneath 20 nM.
rule not met

Dear reviewer, please state whether UCUCUUUGUAGUACUUCUCUU (ssRNA) [Ic_S1_P4E.1_K4.1_C4.1_H4.1_A4.1_[T5G]_[A6T]_[T7A]_F4.1_[T8C]_[A9T]_T4.1] has Kd strictly beneath 20 nM.
rule not met

Dear reviewer, please state whether Ic_S4_P4E.1_K4.1_C4.1_H4.1_A4.1_[T5A]_[A6T]_[T7G]_F4.1_[T8C]_[A9C]_T4.1 (ssRNA) RNA: UUUGACAACUGAUCGUUCUUUCUUGUAAUGCCUUCUUUCUCGAUCAGUUGUCUUU has Kd strictly beneath 20 nM.
rule not met

Dear reviewer, please state whether UCUCUUCGACACUAUUACUUCUCUU (ssRNA) [Id_ii_S1_P4E.4_K4.3_C4.2_[T-1G]_H4.3_A4.1_F4.1_T4.2_[G10C]] has Kd strictly beneath 20 nM.
rule not met

Dear reviewer, please state whether Id_ii_S4_P3E.2_K3.1_C3.2_[T-1C]_H3.1_A3.1_F3.1_T3.2_[T9C]_[A10G] (ssRNA) RNA: UUUGACAACUGAUCGUUCUUUCUCCUGUAUAUACGUUCUUUCUCGAUCAGUUGUCUUU has Kd strictly beneath 20 nM.
rule met

Dear reviewer, please state whether UCUCUUUGUAUGCAGUCUCUU (ssRNA) [Ic_S1_P4E.1_K4.1_C4.1_H4.1_A4.1_[A6G]_[T7C]_F4.1_[T8A]_[A9G]_T4.1] has Kd strictly beneath 20 nM.
rule not met
